System: CCRF-CEM
Assay: Cytotoxicity against human vinblastine-resistant CCRF-CEM cells after 72 hrs by XTT assay
Format: functional, cell-based
I'd be grateful if you could share measured pIC50 for these entries.
A value of pIC50 is the negative decimal logarithm of a concentration given in moles per litre.

**Q:** Could you please provide reported pIC50 for CC(C)NC(=O)OCc1c(COC(=O)NC(C)C)c2sc3ccccc3n2c1C1CC1 ? Thanks!
**A:** 6.05

**Q:** Could you please provide reported pIC50 for CCNC(=O)OCc1c(COC(=O)NCC)c2sc3ccccc3n2c1-c1ccc(Cl)cc1 ? Thanks!
**A:** 6.41

**Q:** Could you please provide reported pIC50 for CCNC(=O)OCc1c(COC(=O)NCC)c2sc3ccccc3n2c1-c1ccc(OC)cc1 ? Thanks!
**A:** 6.38

**Q:** Could you please provide reported pIC50 for CC(C)NC(=O)OCc1c(COC(=O)NC(C)C)c2sc3ccccc3n2c1-c1ccc(F)c(F)c1 ? Thanks!
**A:** 6.52

**Q:** Could you please provide reported pIC50 for COc1ccc(-c2c(COC(=O)NC(C)C)c(COC(=O)NC(C)C)c3sc4ccccc4n23)cc1 ? Thanks!
**A:** 6.60

**Q:** Could you please provide reported pIC50 for CCNC(=O)OCc1c(COC(=O)NCC)c2sc3ccccc3n2c1C1CC1 ? Thanks!
**A:** 6.27

**Q:** Could you please provide reported pIC50 for CCNC(=O)OCc1c(COC(=O)NCC)c2sc3ccccc3n2c1-c1ccc(F)cc1 ? Thanks!
**A:** 6.35

**Q:** Could you please provide reported pIC50 for OCc1c(CO)c2sc3ccccc3n2c1-c1ccc(F)c(F)c1 ? Thanks!
**A:** 6.55

**Q:** Could you please provide reported pIC50 for CC(C)NC(=O)OCc1c(COC(=O)NC(C)C)c2sc3ccccc3n2c1-c1ccc(F)cc1 ? Thanks!
**A:** 6.72

**Q:** Could you please provide reported pIC50 for Cc1c(CO)c(CO)c2sc3ccccc3n12 ? Thanks!
**A:** 5.73

**Q:** Could you please provide reported pIC50 for CCNC(=O)OCc1c(COC(=O)NCC)c2sc3ccccc3n2c1-c1ccc(F)c(F)c1 ? Thanks!
**A:** 6.51

**Q:** Could you please provide reported pIC50 for OCc1c(CO)c2sc3ccccc3n2c1C1CC1 ? Thanks!
**A:** 5.61

----------
Test system: HCT-116
Assay: Cytotoxicity against human HCT116 cells after 72 hrs by SRB assay
Assay type: functional, cell-based
Details: HCT-116, 72 h
Binning rule for recorded IC50: low bin (below 700 nM), mid bin (700 nM to below 2000 nM), high bin (2000 nM or more)

**Q:** Kindly state the category for this compound: OCc1c(CO)c2sc3ccccc3n2c1-c1ccc(Cl)cc1
**A:** high bin

**Q:** Kindly state the category for this compound: CC(C)NC(=O)OCc1c(COC(=O)NC(C)C)c2sc3ccccc3n2c1-c1ccc(F)cc1
**A:** low bin

**Q:** Kindly state the category for this compound: Cc1c(CO)c(CO)c2sc3ccccc3n12
**A:** high bin

**Q:** Kindly state the category for this compound: CCNC(=O)OCc1c(COC(=O)NCC)c2sc3ccccc3n2c1-c1ccc(F)c(F)c1
**A:** mid bin

**Q:** Kindly state the category for this compound: CCNC(=O)OCc1c(COC(=O)NCC)c2sc3ccccc3n2c1-c1ccc(F)cc1
**A:** low bin

**Q:** Kindly state the category for this compound: CC(C)NC(=O)OCc1c(COC(=O)NC(C)C)c2sc3ccccc3n2c1-c1ccc(F)c(F)c1
**A:** low bin

**Q:** Kindly state the category for this compound: CC(C)NC(=O)OCc1c(COC(=O)NC(C)C)c2sc3ccccc3n2c1-c1ccc(Cl)cc1
**A:** mid bin

**Q:** Kindly state the category for this compound: OCc1c(CO)c2sc3ccccc3n2c1-c1ccc(F)cc1
**A:** high bin

**Q:** Kindly state the category for this compound: Cc1c(COC(=O)NC(C)C)c(COC(=O)NC(C)C)c2sc3ccccc3n12
**A:** mid bin
